Recorded values, source paper PMC12136788.

# TARGET OF ASSAY: T1, UNK ZnF1-3 (human, UniProt Q9C0B0 31-174)
# T1 sequence: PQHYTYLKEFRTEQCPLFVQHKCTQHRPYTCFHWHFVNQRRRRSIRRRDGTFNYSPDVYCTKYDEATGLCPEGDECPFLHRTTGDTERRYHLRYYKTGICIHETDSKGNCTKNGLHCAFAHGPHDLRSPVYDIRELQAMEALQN
# PROCEDURE TEXT: nsRBNS (natural sequence RNA bind-n-seq); RBNS binding buffer (assumed for nsRBNS): 25 mM Tris pH 7.5, 150 mM KCl, 3 mM MgCl2, 0.01% Triton X-100, 500 ug/ml BSA, 20 U/ml SUPERase-In, 4 C; UNK is unkempt and MSI1 is Musashi-1; names of the RNAs are library labels; protein concentration not given here; high values mean tight binding
Whole data set: some 24,000 sequences, median “enrichment r” near 0.99, cut for the highest 2% near 3.7. This excerpt belongs to a sample that is enriched for the highest values.
The label is True for binding signal below 0.7 enrichment R and False for binding signal equal to or exceeding 0.7 enrichment R.

Example results:
chr4:144460044:144460045:+_ENSG00000153147_ENST00000283131|hu_mus|hu_hu_hu_mus_False|18_68 (ssRNA) RNA: GGGAGUUCUACAGUCCGACGAUCACGGUCCAUAGCCUGAAGAUCAACUUGCGGAUUCCAAUCUGAGUCAUACAAAAUGACUACAUCAGCAGUUGCAAGAUUGAUGCCCAGACCACCAGCACGCGUGCUUAGCAUAAAUACAAACAACAGAGGAUUGAGCAUCA :: False
chr20:61576232:61576233:+_ENSG00000101193_ENST00000266069|hu_hu|FALSE|FALSE (ssRNA) RNA: GGGAGUUCUACAGUCCGACGAUCGGAUCCACCACGCAAGCGCAGGCGCUACUUGGGCUCCUCAAUCACACCCUUGCUGAGGUCUGUCAUUUUGGGAUAUUUUACUUUCUUCUGGUCCAGCUCGUUCUGAGCCCAAAGUAGUAGCAACAGAGGAUUGAGCAUCA :: False
chr11:86535762:86535763:-_ENSMUSG00000047126_ENSMUST00000103186|mus_hu|FALSE|FALSE (ssRNA) RNA: GGGAGUUCUACAGUCCGACGAUCUGCAAAGCACUGAAUGACUUUAUUUGGGACGUUAGCCCUUAGGUACACACUAAGUGCCAAUGUAGGGUCCACAGAUUUCACAAGAUCACCCAGUUCUUCAGAACAUUCCAGCUUAUCUUCCAACAGAGGAUUGAGCAUCA :: True
chr3:179287964:179287965:+_ENSG00000136518_ENST00000429709|hu_hu|hu_hu_hu_mus_True|68_68 (ssRNA) RNA: GGGAGUUCUACAGUCCGACGAUCCUUGAGUGGUGAGAUGGCCUCCAUGUUCUCCCUGGGCACGCGGAGAGCAUUAGUGUCUAUGUAGUAGGUGGGCCCGCCCUGCUUGCCUUUGUCACCAUCAAUCUCCAUCAUUGUACUUCCCAACAGAGGAUUGAGCAUCA :: False
80201405_80202562_482_3pUTR_ENSMUSG00000017421_ENSMUST00000017567|mouse|control|control (ssRNA) RNA: GGGAGUUCUACAGUCCGACGAUCCUGUGGCUGAAAGGAAGUUGAGGCUGCAGAUUCAUCAUCAUCAUAUUCAUCAGAAUCAUCUUGUUGUUUCUUUUUCUGACUCUCUUGUGUUUUCUGUUCAAGAAGUCGCCGUCUUUCAUCCAACAGAGGAUUGAGCAUCA :: True
chr11:2981123:2981124:-_ENSG00000205531_ENST00000380542|hu_mus|FALSE|FALSE (ssRNA) RNA: GGGAGUUCUACAGUCCGACGAUCCUUGUACGUUUUCGUCAGGACAGGAUUGGUGAAGUAGUCGUUGGGUUCAAAGUGAAACUCUAGCACAAAAGACAUAGGUUGUCCAGGGUCUGAAAACUUCACUUUAAUAUCCUGCAGAUGCAACAGAGGAUUGAGCAUCA :: False

Now consider the entry below.
Req: In plain terms, does chr5:108714581:108714582:-_ENSG00000198961_ENST00000361557|hu_hu|FALSE|FALSE (ssRNA) RNA: GGGAGUUCUACAGUCCGACGAUCUGAAAGACCAGUGUAUGCCUCUGCCUCUCUGUUUUCCAACUCAAAUACUGUAUUGCCUAAUGAUUCCUGGUAUCUACUACCUUCCACGACUUCUGCAGAAAGUUGAAGAUGGUCAUUAUCCAACAGAGGAUUGAGCAUCA come in under 0.7 enrichment R for binding signal?
Resp: False
